- target_of_assay: IL-17A (Homo sapiens)
- Sequence (Q16552 24-155): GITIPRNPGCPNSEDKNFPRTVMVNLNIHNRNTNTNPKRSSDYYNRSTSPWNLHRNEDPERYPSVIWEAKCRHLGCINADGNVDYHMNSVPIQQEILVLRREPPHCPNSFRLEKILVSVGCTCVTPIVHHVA
- test_method_notes: HEK-Blue IL-17 cell assay (SEAP reporter, rhIL-17A/A stimulation)
- setup_conditions: HEK-Blue IL-17 cells with rhIL-17A/A, 20 hours at 37° C., absorbance at 405 nm
pIC50: −log10 of the molar value.
measurement_type: pIC50

# example entries with known answers
CC(=O)N1C[C@H](c2ccc(NC(=O)[C@@H](NC(=O)c3ccnn3C(C)C)C3CCCCCC3)cc2)[C@H](C(=O)NCC(F)(F)F)C1 [Example 66]
7.35
COC(=O)N1CC(C(=O)N2CC(F)(F)C2)C(c2cc(F)c3nc([C@@H](NC(=O)c4ccnn4C(C)C)C4CCCCCC4)[nH]c3c2)C1 (stereo partly drawn) [Example 53]
6.27

(P) COC(=O)N1C[C@H](C(=O)N2CC(F)(F)C(F)(F)C2)[C@@H](c2ccc(NC(=O)[C@@H](NC(=O)c3ccnn3C(C)C)C3CCCCCC3)cc2F)C1 [Example 61]
(Q) COC(=O)N1CC(C(=O)N2CC(F)(F)C2)=C(c2ccc3cnc([C@@H](NC(=O)c4ccnn4C(C)C)C4CCC(F)(F)CC4)nc3c2)C1 [Example 46]
Lookup: Dear colleague, could you let me know whether P or Q has the lower recorded pIC50? Thanks. Answer with the label corresponding to your selection.
Found: Q
(Q: 5.22, P: 7.18)

====

- target_of_assay: IL-17A (Homo sapiens, UniProt Q16552)
- test_method_notes: HEK-Blue IL-17 cell assay (SEAP reporter, rhIL-17A/A stimulation)
- setup_conditions: HEK-Blue IL-17 cells with rhIL-17A/A, 20 hours at 37° C., absorbance at 405 nm
measurement_type: IC50 (µM)

CC(=O)N1C[C@H](C(=O)N2CC(F)(F)C(F)(F)C2)[C@@H](c2ccc(NC(=O)[C@@H](NC(=O)c3ccnn3C(C)C)C3CCCCCC3)cc2)C1
0.0286

(P) CC(=O)N1C[C@H](C(=O)N2CC(F)(F)C(F)(F)C2)[C@H](c2ccc(NC(=O)[C@@H](NC(=O)c3ccnn3C(C)C)C3CCCCCC3)cc2)C1
(Q) CC(=O)N1C[C@H](C(=O)N2CC(F)(F)C(F)(F)C2)[C@@H](c2ccc(NC(=O)[C@@H](NC(=O)c3ccnn3C(C)C)C3CCC(F)(F)CC3)cc2)C1
(R) COC(=O)N1C[C@H](c2ccc(NC(=O)[C@@H](NC(=O)c3ccnn3C(C)C)C3CCCCCC3)cc2)[C@H](C(=O)N2CC(F)(F)C2)C1
(S) CC(C)n1nccc1C(=O)N[C@H](C(=O)Nc1ccc([C@H]2CN(C(=O)CCC(F)(F)F)C[C@@H]2C(=O)N2CC(F)(F)C(F)(F)C2)cc1)C1CCCCCC1
Lookup: Reorder: IC50, max to min. Write out the labels following the order that was asked for.
Found: Q, S, P, R

====

- target_of_assay: IL-17A (Homo sapiens, UniProt Q16552)
- test_method_notes: HEK-Blue IL-17 cell assay (SEAP reporter, rhIL-17A/A stimulation)
- setup_conditions: HEK-Blue IL-17 cells with rhIL-17A/A, 20 hours at 37° C., absorbance at 405 nm
pIC50: −log10 of the molar value.
measurement_type: pIC50

# example entries with known answers
CC(C)n1nccc1C(=O)N[C@H](C(=O)Nc1ccc([C@H]2CN(C(=O)N(C)C)C[C@@H]2C(=O)N2CC(F)(F)C(F)(F)C2)cc1)C1CCCCCC1
7.41
CC(=O)N1C[C@H](c2ccc(NC(=O)[C@@H](NC(=O)c3ccnn3C(C)C)C3CCCCCC3)cc2)[C@H](C(=O)N2CC(F)(F)C2)C1
7.16

(1) COC(=O)N1C[C@H](C(=O)N2CC(F)(F)C2)[C@@H](c2ccc(NC(=O)[C@@H](NC(=O)c3ccnn3C(C)C)C3CCC(F)(F)CC3)cc2)C1
(2) CC(=O)N1C[C@H](c2ccc(NC(=O)[C@@H](NC(=O)c3ccnn3C(C)C)C3CCCCCC3)c(F)c2)[C@H](C(=O)N2CC(F)(F)C(F)(F)C2)C1
(3) CC(=O)N1CC(C(=O)N2CC(F)(F)C2)C(c2cc(F)c3nc([C@@H](NC(=O)c4ccnn4C(C)C)C4CCCCCC4)[nH]c3c2)C1 (some centres unmarked)
(4) CC(=O)N1C[C@H](c2ccc(NC(=O)[C@@H](NC(=O)c3ccnn3C(C)C)C3CCCCCC3)cc2)[C@H](C(=O)N2CC(F)(F)C(F)(F)C2)C1
Lookup: With regard to pIC50, arrange the entries in ascending order, please. Write out the labels following the order that was asked for.
Found: 1, 3, 2, 4
(1: 6.03, 3: 6.93, 2: 7.50, 4: 7.94)

(A) COC(=O)N1C[C@H](C(=O)N2CC(F)(F)C2)[C@@H](c2ccc(NC(=O)[C@@H](NC(=O)c3nonc3C)C3CCC(F)(F)CC3)cc2)C1
(B) COC(=O)N1C[C@H](C(=O)N2CC(F)(F)C(F)(F)C2)[C@@H](c2ccc(NC(=O)[C@@H](NC(=O)c3ccnn3C(C)C)C3CCCCCC3)cc2)C1
Lookup: Dear colleague, could you let me know whether A or B has the lower recorded pIC50? Thanks. Answer with the label corresponding to your selection.
Found: A
(A: 5.84, B: 7.33)

Hello, the source for this data is patent US20260265229A1, in case you need it.
